# Test system: 12R8-1 (A375 F11 clone with acquired resistance to Compound A)
# testDetails: Cell growth inhibition assay (Cell Titer Glo, 3 days)
# Assay type: cell-based
# conditionNotes: Homo sapiens, A-375, 72 h, 12R8-1: NRAS A146A/T, MEK1 WT, single agent, read-out: IC50, Single Agent Effect, Compound B
measuredParameter: IC50 (nM)
Provide the reading as a plain figure in nM.

Please list IC50 recorded for the compound CC(=O)Nc1cccc(-n2c(=O)n(C3CC3)c(=O)c3c(Nc4ccc(I)cc4F)n(C)c(=O)c(C)c32)c1 [Compound B] 81

----------
# Tested on: 12R5-3 (A375 F11 clone with acquired resistance to Compound A)
# testDetails: Cell growth inhibition assay (Cell Titer Glo, 3 days)
# Type: cell-based
# conditionNotes: Homo sapiens, A-375, 72 h, 12R5-3: NRAS A146A/T, MEK1 WT, single agent, read-out: IC50, Single Agent Effect, Compound B
measuredParameter: pIC50
API: returns pIC50 as number; meaning -log10 of concentration in mol/L.

Please list pIC50 recorded for the compound CC(=O)Nc1cccc(-n2c(=O)n(C3CC3)c(=O)c3c(Nc4ccc(I)cc4F)n(C)c(=O)c(C)c32)c1 [Compound B] 7.11

----------
# Test system: 16R5-5 (A375 F11 clone with acquired resistance to Compound A)
# testDetails: Cell growth inhibition assay (Cell Titer Glo, 3 days)
# Format: cell-based
# conditionNotes: Homo sapiens, A-375, 72 h, 16R5-5: NRAS Q61Q/K, MEK1 P387P/S, single agent, read-out: IC50, Single Agent Effect, Compound B
measuredParameter: pIC50
API: returns pIC50 as number; meaning -log10 of concentration in mol/L.

Please list pIC50 recorded for the compound CC(=O)Nc1cccc(-n2c(=O)n(C3CC3)c(=O)c3c(Nc4ccc(I)cc4F)n(C)c(=O)c(C)c32)c1 6.89

----------
# Tested on: A375 cells expressing MEK1K59del
# testDetails: Proliferation of BacMAM-transduced A375 cells
# Assay type: cell-based
# conditionNotes: Homo sapiens, A-375, read-out: IC50, inhibition of proliferation
# Procedure: BacMAM constructs were generated using MEK1 cDNA and mutations in MEK1 were introduced using site directed mutagenesis. BacMAM virus particles were prepared as described in the supplemental methods. A375 cells were transduced with the indicated BacMAM virus. Forty-eight hours post transduction, cells were plated for subsequent proliferation and western blot analysis as described above.
measuredParameter: IC50 (nM)
Provide the reading as a plain figure in nM.

Please list IC50 recorded for the compound CC(C)(C)c1nc(-c2cccc(NS(=O)(=O)c3c(F)cccc3F)c2F)c(-c2ccnc(N)n2)s1 [Compound A] 179

----------
# System: YUSIT1 clones that acquired resistance to Compound A (BRAF V600K)
# testDetails: Cell growth inhibition assay, resistant YUSIT1 clones
# Format: cell-based, human
# conditionNotes: Homo sapiens, read-out: IC50, cell growth inhibition
pIC50: −log10 of the molar value.
measuredParameter: pIC50

Please list pIC50 recorded for the compound CC(C)(C)c1nc(-c2cccc(NS(=O)(=O)c3c(F)cccc3F)c2F)c(-c2ccnc(N)n2)s1 < 6.30

----------
# System: 16R6-4 (A375 F11 clone with acquired resistance to Compound A)
# testDetails: Cell growth inhibition assay (Cell Titer Glo, 3 days)
# Assay type: cell-based
# conditionNotes: Homo sapiens, A-375, 72 h, Table 3, 16R6-4: NRAS Q61Q/K, A146A/T, MEK1 P387P/S, single agent, read-out: IC50, Single Agent, Compound C
measuredParameter: pIC50
API: returns pIC50 as number; meaning -log10 of concentration in mol/L.

Please list pIC50 recorded for the compound COc1ncc(-c2ccc3nccc(-c4ccnnc4)c3c2)cc1NS(=O)(=O)c1ccc(F)cc1F 6.67
